Values were extracted from ChEMBL document CHEMBL5244260.

- experimental system: Aldo-keto reductase family 1 member B1 (Homo sapiens)
- assay explanation: Inhibition of ALR2 (unknown origin) using D,L-glyceraldehyde as substrate incubated for 10 mins in presence of NADPH by UV-spectrophotometric assay
parameter measured: pIC50
Interpret pIC50 as the negative base-10 log of the concentration measured in mol/L.

According to the records, this molecule O=C1NC(=O)C2(CCCCC2)N1S(=O)(=O)c1ccc(Cl)s1 displays pIC50 of 6.33

====

- experimental system: UniProt P07943
- assay explanation: Inhibition of recombinant Aldose reductase in rat lens using D,L-glyceraldehyde as substrate in presence of NADPH measured after 4 mins by spectrophotometric assay
- Assay type: tissue-based
parameter measured: pIC50
pIC50 field: float, defined as -log10 of concentration (mol/L).

pIC50 recorded for this molecule, COc1ccc2c(c1)C=Cc1cc(OC)ccc1C2/C=C1\SC(=O)NC1=O , is 5.47

For record O=C1CC2(C(=O)N1)c1ccc(O)cc1C=Cc1cc(O)ccc12 the listed pIC50 is 5.52
